Source of measurements: PubChem BioAssay (NCI)

// values below are reported growth
# System: HCT-15 colon
# assay-comment: NCI-60 one-dose screen, 48 h (100 = growth as untreated, 0 = no growth, -100 = all killed)
# cond: 10 µM unless noted
Compounds without any hit were thinned out: in the full panel of roughly 83,000, 20% have a hit. Active and inactive are the calls of the source. How the source made its calls: active means growth percent below 10; inactive means the rest.
measure-name: growth

O=C(N=Nc1c(O)[nH]c2ccccc12)c1cc(-c2ccccc2)on1 | 102% (inactive)
Cn1cc(C(=O)c2nc(-c3c[nH]c4ccc(Br)cc34)no2)c2cc(F)ccc21 | 92.1% (inactive)
c1ccc2[nH]c(-c3ccc(Nc4nc(N5CCCC5)nc5[nH]ncc45)cc3)nc2c1 | -36.2% (active)
C=C1C(=O)O[C@H]2[C@H]1CC/C(COC(=O)NCc1ccc(OC)c(OC)c1)=C\CC[C@@]1(C)O[C@@H]21 | 50.7% (inactive)
N#Cc1c(-c2ccc(Cl)cc2)nc(NN=Cc2ccco2)nc1N1CCOCC1 | 80.3% (inactive)
CC/C=C\C[C@H](O)C/C=C1/C(=O)C=C[C@@]1(C)C/C=C\CCCC(=O)OC | 101% (inactive)
O=c1cc(CSc2nnc(-c3ccc(F)cc3)o2)c2ccc3ccccc3c2o1 | 98.4% (inactive)
COc1ccc(/C=C/C(=O)c2cc(O)ccc2O)cc1 | 87.7% (inactive)
Cn1c(=O)[nH]c(=O)c2nc(CCC(=O)NCCC(=O)O)c(=O)[nH]c21 | 106% (inactive)
Cc1nc2ccccc2n1C(=O)C[C@@H]1NC(=S)NC1=O | 93% (inactive)
CN(C)CCCNc1c2ccccc2nc2ccccc12 | 94.1% (inactive)
O=c1cc(CSc2nnc(SCc3cc(=O)oc4c3ccc3ccccc34)o2)c2ccc3ccccc3c2o1 | 104% (inactive)
CCN(CC)c1ccc2c(c1)Oc1nc(N)c(C#N)c(N)c1C2Sc1ccc(SC)cc1 (stereo not given) | -14.3% (active)
O=C(/C=C/C=C/c1ccc2c(c1)OCO2)N/N=C\c1ccc(O)cc1O | 17% (inactive)
CCOC(=O)c1csc(NC(=O)COc2cccc(/C=C3\CSc4ccccc4C3=O)c2)n1 | 89% (inactive)
COc1ccc2c(c1)C(=O)/C(=C/c1cccnc1)CC2 | 92.8% (inactive)
NC(N)=N/N=C(/c1ccccc1)c1ccc(F)cc1 | 10.3% (inactive)
COC(=O)c1ccc(NC(=O)c2ccc(-c3cccc([N+](=O)[O-])c3)o2)cc1 | 101% (inactive)
Clc1ccc2c(NCCCCNc3nc(N4CCOCC4)nc4ccccc34)ccnc2c1 | 22.9% (inactive)
COc1cc(C=Nc2oc(-c3ccccc3)c(-c3ccccc3)c2C#N)cc(CN2CCCCC2)c1O | 95.4% (inactive)
COc1cc(/C=C/C(=O)c2cccnc2Nc2ccc(F)cc2)cc(OC)c1OC | 22.2% (inactive)
COC[C@H](C)n1c(C2CCOCC2)nc2cnc3cc(-c4c(C)noc4C)c(OC)cc3c21 | 34.6% (inactive)
O=c1ccccc(-c2ccc(-c3ccco3)cc2)c1O | 29% (inactive)
c1ccc(CCNc2ncnc3[nH]ncc23)cc1 | 105% (inactive)
O=C(Nc1ccccc1Cl)c1ccc(NC2=C(Cl)C(=O)N(C3CCCCC3)C2=O)cc1 | 46.5% [30 µM] (inactive)
